Molecular target: Somatostatin receptor 3 (SSTR3) (human), P32745
Sequence (P32745 whole entry): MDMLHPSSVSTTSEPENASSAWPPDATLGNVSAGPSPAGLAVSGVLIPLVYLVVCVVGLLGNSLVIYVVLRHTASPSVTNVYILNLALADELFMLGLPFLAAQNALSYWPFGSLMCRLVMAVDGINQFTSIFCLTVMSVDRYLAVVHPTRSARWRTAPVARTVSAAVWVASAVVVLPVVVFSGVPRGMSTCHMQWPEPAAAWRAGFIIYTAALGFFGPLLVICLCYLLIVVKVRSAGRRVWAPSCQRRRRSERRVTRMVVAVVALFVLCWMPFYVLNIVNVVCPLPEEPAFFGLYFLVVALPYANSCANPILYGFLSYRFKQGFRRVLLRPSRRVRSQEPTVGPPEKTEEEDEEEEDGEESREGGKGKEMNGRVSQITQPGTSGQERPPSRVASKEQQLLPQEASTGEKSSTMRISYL
Conditions: L-mesityl alanine (2,4,6-trimethylphenylalanine, Msa) in place of Phe6; D-Trp at position 7; disulfide bridge between the two cysteines
pIC50: −log10 of the molar value.

BINDER: PCKNFFWKTFTSCK [Cortistatin analogue 2]
pIC50: 7.80
